# Mean IC50, pSV neutralization values compiled below
molecular target: SARS-CoV-2 S on pseudovirions (Wuhan Hu-1 / IL1/2020, last 18 amino acids removed) (SARS-CoV-2, UniProt P0DTC2 14-1273); experiment: cell-based or functional assay

Known Mean IC50, pSV neutralization results, listed for orientation:
{"binder": "COV_2174 (antibody, V domains shown, human IgG1) VH: EVQLAESGGGLVKPGGSLRLSCAASGFTFSDYYMSWIRQAPGKGLEWVSYISSSGSTIYYADSVKGRFTISRDNAKNSLYLQMNSLRAEDTAVYYCARDWSVVVVPAAPAVDVWGQGTTVTVSS VL: DIQMTQSPSSLSASVGDRVTITCRASQGISNYLAWFQQKPGKAPKSLIYAASSLQSGVPSKFSGSGSGTDFTLTISSLQPEDFATYYCQQYNSYPLTFGGGTKVEIKR", "Mean IC50, pSV neutralization": "0.502 µg/ml"}
{"binder": "COV_1086 (antibody, V domains shown) VH: GAQLLESGGALVQPGGSLRLSCAASGFTFNNYGMGWVRQTPGKGLEWVSTINDNGGNTHYADSVKGRFTISRDNSKHTLYLQMNSLRVEDTALYYCAKDVGGPALFEYWGHGTLVTVSS VL: DIVMTQTPLSSSVTLGQPASISCRSSQSLVHSDGNTYLTWLQQRPGQPPKLLIYKISNRLSGVPDRFSGSGAGTDFTLKISRVEAEDVGVYYCMQATHFPRTFGQGTKLEIKR", "Mean IC50, pSV neutralization": "≥ 25 µg/ml"}
{"binder": "COV_2143 (antibody, V domains shown, human IgG1) VH: EVQLVESGGGVVQPGRSLRLSCAASGFTFNSFAMLWVRQAPGKGLEWVALFSYDGSNKYYADSVKGRFTISRDNSKNTLYLQMNNLRAVDTAVYYCARASPYDINGYYLHRIAFDIWGQGTMVTVSS VL: QSVLMQPPSVSGAPGQRVTISCTGSSSNIGAGYDVHWYQQLPGTAPKLLMYGNSNRPSGVPDRFSGSKSGTSASLAITGLQAEDEADYYCQSYDSGLSGWVFGGGTKLTVLG", "Mean IC50, pSV neutralization": "≥ 25 µg/ml"}
{"binder": "COV_2066 (antibody, V domains shown) VH: QVQLQESGPGLVKPSETLSLTCSVSGFAITNGFDWGWIRQPPRLGLEWIGTVFHTGVTYSNPSLKSRLSTSVDTSKNQFSMTLNSVTAADTGIYYCVRVQSGLEARAMSFFDYWGQGMLVSVSS VL: DIVMTQSPDSLAVSLGERATINCKSSQNVLYSSNNKNSLAWYQQKPGQPPKVLIYWASTRVSGVPDRFIGSGSGTDFTLTISSLQAEDVAVYYCQQYSSSITFGPGTKVEVKR", "Mean IC50, pSV neutralization": "≥ 25 µg/ml"}

Turning now to a further record.
Form: binder = COV_3043 (antibody, V domains shown) VH: EVQVVESGGGLVQPGRSLRLSCTASGFNFGDNSMSWVRQAPGKGLEWVGFISNRDHSGTTDYAASVKGRFTISRDDSKSIAYLQMNSLKTEDTAIYYCIRDSYGHFPNYGFDVWGQGTMVTVSS VL: DVVMTQTPLSLSVTPGQPASISCKCSQSLIHSDGKTYQYWFLQRPGQPPQLLIYDVSNRVSGVPDRFSGSGSGTDFTLKISRVEAEDVGVYYCMHSINFPRTFGQGTKVEIT ; Mean IC50, pSV neutralization = ≥ 25 µg/ml
